assay: growth inhibition of non-replicating M. tuberculosis (AID 488890); conditions: Mycobacterium tuberculosis non-replicating, at 25 µM, stronger effect = higher value;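 further: plate controls were DMSO cells for no effect and high antibiotic wells for full effect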
Among all 320,000 compounds or so, about 1,300 (0.41%) were called active. Another 3% or so got no clear call; they are omitted. A selection follows. Potency and affinity values are given separately.
Below, each entry is listed with its recorded inhibition.
# number only, unit % dropped from output

molecule=Cc1cccc(C(=O)NNC(=O)c2csc(N3CCOCC3)n2)c1C quantitativereadout=-2.47

IN: Let me know recorded inhibition for Cc1nnc(N/N=C/c2ccccc2C(F)(F)F)n1N , thanks.
OUT: 3.91

IN: Check the records and state inhibition for O=C(CCC(=O)N1CCN(c2ccccc2)CC1)Nc1nnc(C2CCCCC2)s1
OUT: -14.5

IN: Give inhibition for COc1ccccc1C(=O)Nc1ccc(S(=O)(=O)Nc2nccs2)cc1
OUT: 16

IN: For the molecule O=C(N/N=C/c1ccccc1O)c1ccncc1 , give its reported inhibition.
OUT: 67.2

IN: Note inhibition for the molecule shown: CC(C(=O)c1ccccc1)[n+]1cccc(C(N)=O)c1 (stereo unspecified)
OUT: -11.2

###

test: growth inhibition of non-replicating M. tuberculosis (AID 488890); details: Mycobacterium tuberculosis non-replicating, at 25 µM, stronger effect = higher value;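 further: plate controls were DMSO cells for no effect and high antibiotic wells for full effect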
Screen size: about 320,000 compounds; about 1,300 (0.41%) were called active. Another 3% or so got no clear call; they are omitted. Only a sample is shown. Measured potencies and affinities stand elsewhere.
valueType: inhibition (%)
I only need the number, in %, no unit after it.

IN: Look up and state reported inhibition for COc1c[nH]n(-c2ccccc2)c(=O)c1=O
OUT: 3.41

###

test: growth inhibition of non-replicating M. tuberculosis (AID 488890); details: Mycobacterium tuberculosis non-replicating, at 25 µM, stronger effect = higher value;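 further: plate controls were DMSO cells for no effect and high antibiotic wells for full effect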
Hit rate of the full screen: of about 320,000 compounds, about 1,300 (0.41%) were called active. About 3% were inconclusive and are not listed. Not all results are given here. Potency and affinity values are given separately.
Answer F if inhibition is under 10%, and T if it is 10% or more.

Solved cases below.
molecule=CCN(C[C@H]1N[C@@](CC)(C(=O)OC)[C@H]2C(=O)N(C)C(=O)[C@@H]12)C(=O)Nc1ccc(C)cc1 assignedlabel=F
molecule=O=C1c2ccccc2C(=O)N1CC#CCN1CCN(C(c2ccccc2)c2ccccc2)CC1 assignedlabel=F
molecule=COc1ccc(NC(=O)/C(C#N)=C/c2c(C)nn(-c3ccc(F)cc3)c2Cl)cc1OC assignedlabel=F
molecule="O=C(NC1CCOc2ccccc21)c1ccccn1 (centres undefined)" assignedlabel=T
molecule=CCn1nnc(NC(=O)Cc2ccc(Cl)cc2)n1 assignedlabel=T

IN: Record CCOCC(=O)Nc1nnc(COC)s1 ; criterion: inhibition no lower than 10%. Met?
OUT: F

IN: inhibition >= 10% for CCCOc1ccc(Cc2c(O)nc(SC)[nH]c2=O)cc1 ?
OUT: F

IN: Quick check: does COc1ccc(N2CC(NS(=O)(=O)c3cccs3)CC2=O)cc1 (centres undefined) have inhibition greater than or equal to 10%?
OUT: F

IN: Is the recorded value of inhibition equal to or greater than 10% for this molecule? FC(F)(F)c1nnc2ccc(N3CCCC3)nn12
OUT: F

###

assay: growth inhibition of non-replicating M. tuberculosis (AID 488890); conditions: Mycobacterium tuberculosis non-replicating, at 25 µM, stronger effect = higher value;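 further: plate controls were DMSO cells for no effect and high antibiotic wells for full effect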
Among all 320,000 compounds or so, about 1,300 (0.41%) were called active. Inconclusive results (about 3%) are left out. These entries were drawn from the full list. Results with a measured potency or affinity are listed apart.
# reported inhibition; entries follow
Numeric answer only, unit % assumed.

Guide cases for inhibition, answers given:
compound=O=C1CN=C(c2ccccc2)c2cc(Cl)ccc2N1 valuetype=inhibition quantitativereadout=5.86
compound=O=C1N=c2ccccc2=C1c1sc(=S)n(Cc2ccccc2Cl)c1O valuetype=inhibition quantitativereadout=-18.1
compound=O=C(COC(=O)c1ccc([N+](=O)[O-])o1)c1ccccc1 valuetype=inhibition quantitativereadout=22.4
compound=N#C/C(N)=C(/C#N)N=Cc1cccc(Cl)c1 valuetype=inhibition quantitativereadout=8.31
compound="C/C(=N\\N=C1\\NC(=O)C(CC(=O)Nc2ccc(C)c(Cl)c2)S1)C(C)(C)C (configuration not stated)" valuetype=inhibition quantitativereadout=38.8

IN: For the compound O=C(CS(=O)(=O)c1ccccc1)Nc1ncc([N+](=O)[O-])s1 , report inhibition.
OUT: -8.38

IN: Note down inhibition recorded for CC[C@H](C)C(C(=O)N1CCN(C(=O)OC(C)(C)C)CC1)n1cc(C(CC(C)C)NC(=O)OC(C)(C)C)nn1 (some centres not stated)
OUT: 10.5

IN: Specify reported inhibition for the compound shown: CCCC(=O)C1=C(O)C(C(=O)OC)C(C)(C)CC1=NCCc1ccc(OC)c(OC)c1 (configuration not stated)
OUT: 19

Cited source: PubChem BioAssay AID488890
